Measured inhibition at 10 µM values are reported for all entries that follow.
Biological target: human TRPA1 (Homo sapiens, UniProt O75762)
Construct: expressed in transfected cells; host or cells: CHO cells (G-418 selection)
Sequence (O75762 whole entry): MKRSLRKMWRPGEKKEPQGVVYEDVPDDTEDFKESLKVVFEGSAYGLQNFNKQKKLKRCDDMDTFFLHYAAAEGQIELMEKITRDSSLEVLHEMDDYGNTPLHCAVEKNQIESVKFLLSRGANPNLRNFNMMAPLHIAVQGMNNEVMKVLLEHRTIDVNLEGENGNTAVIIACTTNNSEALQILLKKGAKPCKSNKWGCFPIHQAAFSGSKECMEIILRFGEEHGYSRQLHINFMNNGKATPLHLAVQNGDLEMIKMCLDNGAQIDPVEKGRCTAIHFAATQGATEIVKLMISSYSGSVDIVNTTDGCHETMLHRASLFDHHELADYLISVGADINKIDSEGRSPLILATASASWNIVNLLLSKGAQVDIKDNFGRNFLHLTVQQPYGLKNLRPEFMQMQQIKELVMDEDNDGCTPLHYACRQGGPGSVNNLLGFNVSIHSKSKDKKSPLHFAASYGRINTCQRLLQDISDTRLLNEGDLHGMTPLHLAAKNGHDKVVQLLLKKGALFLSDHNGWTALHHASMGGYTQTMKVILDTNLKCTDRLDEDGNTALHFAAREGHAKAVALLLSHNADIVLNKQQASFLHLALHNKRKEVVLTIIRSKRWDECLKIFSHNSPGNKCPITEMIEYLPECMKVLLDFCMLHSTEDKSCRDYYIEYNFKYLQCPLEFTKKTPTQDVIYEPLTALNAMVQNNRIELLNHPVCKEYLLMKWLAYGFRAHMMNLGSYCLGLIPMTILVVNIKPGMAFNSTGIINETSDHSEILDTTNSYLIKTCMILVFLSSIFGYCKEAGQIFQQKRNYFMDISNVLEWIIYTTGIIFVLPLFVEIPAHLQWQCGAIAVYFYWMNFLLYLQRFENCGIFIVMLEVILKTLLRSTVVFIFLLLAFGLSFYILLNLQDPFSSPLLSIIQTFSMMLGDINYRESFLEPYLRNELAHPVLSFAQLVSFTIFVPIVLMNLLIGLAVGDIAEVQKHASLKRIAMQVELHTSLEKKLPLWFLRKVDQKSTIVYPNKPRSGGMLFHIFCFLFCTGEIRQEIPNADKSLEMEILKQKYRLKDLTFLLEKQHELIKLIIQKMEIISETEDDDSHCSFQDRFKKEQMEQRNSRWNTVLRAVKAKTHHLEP
Experiment: 45Calcium uptake assay, inhibition of AITC induced calcium uptake in human TRPA1 expressing CHO cells
Format: cell-based
Conditions: 10.0 μM compound, AITC 30 μM, read-out: human TRPA1 Percentage inhibition at 10.0 μM
Numbers only; they are read as %.

Example cases with answers are listed next.
1) Cn1c(=O)c2c(CC(=O)Nc3nc(-c4ccc(F)c(F)c4)cs3)nsc2n(C)c1=O [Example 27]: 99.8
2) Cn1c(=O)c2c(CC(=O)Nc3nc(-c4cccc(C(F)(F)F)c4F)cs3)nsc2n(C)c1=O [Example 23]: 100

Pending compound:
Lab book: inhibition at 10 µM of Cn1c(=O)c2c(CC(=O)Nc3ccn(-c4ccc(Br)cc4)n3)snc2n(C)c1=O [Example 11] noted as 100

Measured values drawn from patent US8575178B2 for this set.
